# Tested on: MOLT-4 leukemia
# assay-summary: NCI tumour cell line growth inhibition, 384-well format
Each entry below carries its recorded TGI.
Give the value, in units of µM, as a plain number.

Illustrative cases are given below, each with its answer.
COc1ccccc1-c1nccc(COc2ccccc2C[C@@H](Oc2ncnc3sc(-c4ccc(F)cc4)c(-c4ccc(OCCN5CCN(C)CC5)c(Cl)c4C)c23)C(=O)O)n1: 0.0177
Cc1cc([C@H](C)Nc2nccc(N3C(=O)OC[C@@H]3[C@H](C)F)n2)ncc1-c1ccnc(C(F)(F)F)c1: 25.3

[Q] Give a short answer stating reported TGI for `Cc1cc(Nc2cc(N3CCN(C)CC3)nc(C#Cc3ccccc3)n2)n[nH]1` .
[A] 2.58
